These measurements were taken from patent US9834563B2.

// pEC50 lookup, one value per entry
- system_under_test: Human GPR40 (Homo sapiens)
- protocol_summary: FLIPR assay: agonist-induced calcium mobilization in GPR40/CHO NFAT BLA cells
- Type: cell-based
- Design: expressed in transfected cells; host or cells: CHO cells stably expressing NFAT BLA (beta-lactamase)
To interpret pEC50, take it as minus log10 of a concentration measured in moles per litre.

compound | measured_value
Cc1cc(OC2CCS(=O)(=O)CC2)nc(C)c1-c1cccc(COc2ccc3c(c2)C[C@H]2[C@H](C(=O)O)[C@@H]32)c1 [Example 13] | 6.99

pEC50 for Cc1nc(N2CCC(c3ccccc3)CC2)nc(C)c1-c1ccc(F)c(COc2ccc3c(c2)C[C@H]2[C@H](C(=O)O)[C@@H]32)c1F [Example 45] ?
7.53

pEC50 for Cc1cc(OCCCS(C)(=O)=O)nc(C)c1-c1cccc(COc2ccc3c(c2)C[C@H]2[C@H](C(=O)O)[C@@H]32)c1C [Example 7] ?
7.01

###

- system_under_test: Human GPR40 (Homo sapiens, UniProt O14842)
- Sequence (O14842 whole entry): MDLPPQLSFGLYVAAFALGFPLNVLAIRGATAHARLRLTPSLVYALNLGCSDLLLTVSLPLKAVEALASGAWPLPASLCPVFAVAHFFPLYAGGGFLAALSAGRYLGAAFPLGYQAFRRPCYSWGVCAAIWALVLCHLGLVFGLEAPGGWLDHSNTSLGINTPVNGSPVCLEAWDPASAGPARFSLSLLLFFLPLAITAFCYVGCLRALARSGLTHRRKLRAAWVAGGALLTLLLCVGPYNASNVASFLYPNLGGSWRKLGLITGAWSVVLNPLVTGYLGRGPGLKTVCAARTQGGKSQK
- protocol_summary: FLIPR assay: agonist-induced calcium mobilization in GPR40/CHO NFAT BLA cells
- Assay type: cell-based
- Set-up: expressed in transfected cells; host or cells: CHO cells stably expressing NFAT BLA (beta-lactamase)
pEC50: −log10 of the molar value.
Tag: 1.0 if measured pEC50 is not below 8, 0.0 if it is.

Some entries whose results are on file:
structure_smiles_string | system_under_test | answer_label
CS(=O)(=O)CCCOc1ccc(-c2cccc(COc3ccc4c(c3)C[C@H]3[C@H](C(=O)O)[C@@H]43)c2)c(CO)n1 | Human GPR40 (Homo sapiens, UniProt O14842) | 0.0
Cc1nc(OCCCS(C)(=O)=O)ccc1-c1ccc(F)c(COc2ccc3c(c2)C[C@H]2[C@H](C(=O)O)[C@@H]32)c1 | Human GPR40 (Homo sapiens, UniProt O14842) | 0.0
O=C(O)[C@H]1[C@@H]2Cc3cc(OCc4cc(-c5cnc(NCC6CCOCC6)cc5C(F)(F)F)ccc4F)ccc3[C@@H]21 | Human GPR40 (Homo sapiens, UniProt O14842) | 0.0
Cc1cc(OCCCS(C)(=O)=O)ncc1-c1ccc(F)c(COc2ccc3c(c2)C[C@H]2[C@H](C(=O)O)[C@@H]32)c1 | Human GPR40 (Homo sapiens, UniProt O14842) | 1.0
Cc1nc(OC2CCN(S(C)(=O)=O)CC2)ccc1-c1ccc(F)c(COc2ccc3c(c2)C[C@H]2[C@H](C(=O)O)[C@@H]32)c1 | Human GPR40 (Homo sapiens, UniProt O14842) | 0.0

Note: attention shifts to another entry.
Quick check, pEC50 >= 8? Cc1nc(N2CCC(O)CC2)ccc1-c1ccc(F)c(COc2ccc3c(c2)C[C@H]2[C@H](C(=O)O)[C@@H]32)c1
0.0

###

- system_under_test: Human GPR40 (Homo sapiens)
- protocol_summary: FLIPR assay: agonist-induced calcium mobilization in GPR40/CHO NFAT BLA cells
- Format: cell-based
- Parameters: expressed in transfected cells; host or cells: CHO cells stably expressing NFAT BLA (beta-lactamase)
// EC50 lookup, one value per entry
Form entry: value (nM) — number only.

EC50 for CS(=O)(=O)CCCOc1cc(C(F)(F)F)c(-c2ccc(F)c(COc3ccc4c(c3)C[C@H]3[C@H](C(=O)O)[C@@H]43)c2)cn1 ?
20.6

EC50 for Cc1ccc(COc2ccc3c(c2)C[C@H]2[C@H](C(=O)O)[C@@H]32)cc1-c1cnc2c(ccn2CCCS(C)(=O)=O)c1 ?
74.2

###

- system_under_test: Human GPR40 (Homo sapiens)
- protocol_summary: FLIPR assay: agonist-induced calcium mobilization in GPR40/CHO NFAT BLA cells
- Assay type: cell-based
- Parameters: expressed in transfected cells; host or cells: CHO cells stably expressing NFAT BLA (beta-lactamase)
// EC50 lookup, one value per entry
Form entry: value (nM) — number only.

Here is how some molecules turned out for EC50.
molecule | endpoint_name | measured_value
Cc1nc(N2CCC(C)(O)CC2)ccc1-c1ccc(F)c(COc2ccc3c(c2)C[C@H]2[C@H](C(=O)O)[C@@H]32)c1 [Example 43] | EC50 | 75.5
Cc1nc(OCCCOCc2ccccc2)ccc1-c1ccc(F)c(COc2ccc3c(c2)C[C@H]2[C@H](C(=O)O)[C@@H]32)c1 [Example 34] | EC50 | 75.1
Cc1nc(OC2CCS(=O)(=O)CC2)ccc1-c1ccc(F)c(COc2ccc3c(c2)C[C@H]2[C@H](C(=O)O)[C@@H]32)c1 [Example 2] | EC50 | 70.2

EC50 for Cc1cc(OCCCS(C)(=O)=O)nc(C)c1-c1cccc(COc2ccc3c(c2)C[C@H]2[C@H](C(=O)O)[C@@H]32)c1 [Example 4] ?
89.1

EC50 for Cc1nc(NCCCS(C)(=O)=O)ccc1-c1cccc(COc2ccc3c(c2)C[C@H]2[C@H](C(=O)O)[C@@H]32)c1 [Example 12] ?
123

###

- system_under_test: Human GPR40 (Homo sapiens, UniProt O14842)
- protocol_summary: FLIPR assay: agonist-induced calcium mobilization in GPR40/CHO NFAT BLA cells
- Assay type: cell-based
- Parameters: expressed in transfected cells; host or cells: CHO cells stably expressing NFAT BLA (beta-lactamase)
Counter-ions that a name gives are not always drawn.
endpoint_name: EC50 (nM)
Form entry: value (nM) — number only.

Here is how some compounds turned out for EC50.
compound | measured_value
O=C(O)[C@H]1[C@@H]2Cc3cc(OCc4cc(-c5cnc6[nH]ccc6c5)ccc4F)ccc3[C@@H]21 | 73.3
Cc1cc(-c2ccc(F)c(COc3ccc4c(c3)C[C@H]3[C@H](C(=O)O)[C@@H]43)c2)c2c(cnn2C)n1 [Example 53, formate] | 51.8
Cc1cc(OC2CCS(=O)(=O)CC2)ncc1-c1ccc(F)c(COc2ccc3c(c2)C[C@H]2[C@H](C(=O)O)[C@@H]32)c1 | 93.1

Please examine the following record next.
EC50 for Cc1nc(OC2CCS(=O)(=O)CC2)ccc1-c1ccc(F)c(C(C)Oc2ccc3c(c2)C[C@H]2[C@H](C(=O)O)[C@@H]32)c1 (stereo partly shown) ?
77.8
